// provenance: ChEMBL document CHEMBL1134556

assay: Pharmacokinetic parameter in Male Wistar rats at 3 mg/kg intravenous administration.; type: ADME, organism-based; design: dose 3 mg/kg, route intravenous; conditions: rat, in vivo
parameter: AUC (ng·h/mL)
Form entry: value (ng·h/mL) — number only.

Reported AUC of CCO[C@@H](Cc1ccc(OCCN2c3ccccc3Oc3ccccc32)cc1)C(=O)O : 27800

* * *

assay: Pharmacokinetic parameter in Male Wistar rats at 3 mg/kg intravenous administration.; assay type: ADME, organism-based; design: dose 3 mg/kg, route intravenous; conditions: rat, in vivo
parameter: clearance (mL/min)
The response must be a number in mL/min with no trailing unit.

clearance for CCO[C@@H](Cc1ccc(OCCN2c3ccccc3Oc3ccccc32)cc1)C(=O)O is 0.355
